TARGET ENTITY: B-Raf kinase (SEQ. ID NO: 2) (Homo sapiens (Human), UniProt P15056)
Sequence (P15056 416-766): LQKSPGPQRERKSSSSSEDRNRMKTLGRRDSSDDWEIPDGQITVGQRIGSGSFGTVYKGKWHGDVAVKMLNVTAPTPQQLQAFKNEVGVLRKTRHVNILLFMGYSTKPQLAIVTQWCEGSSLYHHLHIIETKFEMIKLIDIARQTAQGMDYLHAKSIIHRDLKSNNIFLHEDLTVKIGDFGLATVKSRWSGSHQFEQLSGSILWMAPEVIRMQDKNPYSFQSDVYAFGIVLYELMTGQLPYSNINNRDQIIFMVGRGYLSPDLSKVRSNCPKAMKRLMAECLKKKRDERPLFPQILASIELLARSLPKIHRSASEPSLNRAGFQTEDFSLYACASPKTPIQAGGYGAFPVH
PROCEDURE TEXT: Biochemical Assay for B-Raf (1)
MEASUREMENT CONTEXT: Table J, assay version (1); read-out: BRAF (1) IC50
pIC50: −log10 of the molar value.
ATTRIBUTE MEASURED: pIC50

Study these solved cases before continuing.
Cc1cc(C(=O)Nc2cnc(C)c(-c3nccc(-c4ccnc(NC(=O)C5CC5)c4)n3)c2)ccn1    6.30 to 7.00
COCC(=O)Nc1cc(-c2cc(-c3cc(NC(=O)c4ccnc(C(C)(C)C#N)c4)ccc3C)ccn2)ccn1    ≥ 7.00
COC(C)(C)c1cc(C(=O)Nc2ccc(C)c(-c3ccnc(-c4ccnc(NC(=O)C5CC5)c4)n3)c2)ccn1    ≥ 7.00
Cc1ncc(NC(=O)C2CCOC2)cc1-c1nccc(-c2ccnc(NC(=O)C3CC3)c2)n1 (stereo not shown)    5.00 to 6.00
CC(=O)Nc1cc(-c2cc(-c3cc(NC(=O)c4ccnc(C(F)(F)F)c4)ccc3C)cc(N3CCOCC3)n2)ccn1    ≥ 7.00

Query (compound): "Cc1ncc(NC(=O)c2ccnc(C(C)(C)F)c2)cc1-c1cccc(-c2cc(NC(=O)C3CC3)ncn2)c1" ; field requested: pIC50
≥ 7.00

Try "COC(=O)Nc1cc(-c2cnnc(-c3cc(NC(=O)c4ccnc(C5CC5)c4)cnc3C)c2)ccn1" next.
6.30 to 7.00
